Study the reported pKi values for Receptor-type tyrosine-protein kinase FLT3 (Homo sapiens, UniProt P36888) given below; they originate from different publications.
pKi: −log10 of the molar value.
measurement kind: pKi

compound	system tested	result
Nc1ccnc(-c2cnc3[nH]cc(-c4oncc4-c4cccc(F)c4F)c3c2)c1	Receptor-type tyrosine-protein kinase FLT3 (Homo sapiens, UniProt P36888)	4.90 to 6.00
CN1CCN(C(=O)[C@H]2C[C@@H]2c2cnc3[nH]cc(-c4oncc4-c4cccc(F)c4F)c3c2)CC1 (relative stereo)	Receptor-type tyrosine-protein kinase FLT3 (Homo sapiens, UniProt P36888)	> 6.70
Cc1noc(-c2c[nH]c3ncccc23)c1-c1cccc(F)c1F	Receptor-type tyrosine-protein kinase FLT3 (Homo sapiens, UniProt P36888)	> 6.70
Fc1cccc(-c2cnoc2-c2c[nH]c3ncc(-c4ccc(N5CCNCC5)cc4)cc23)c1F	Receptor-type tyrosine-protein kinase FLT3 (Homo sapiens, UniProt P36888)	> 6.70
NC(=O)c1ccc(-c2cnc3[nH]cc(-c4oncc4-c4cccc(F)c4F)c3c2)cc1	Receptor-type tyrosine-protein kinase FLT3 (Homo sapiens, UniProt P36888)	> 6.70
Fc1cc(F)c(F)c(-c2cnoc2-c2c[nH]c3ncccc23)c1	Receptor-type tyrosine-protein kinase FLT3 (Homo sapiens, UniProt P36888)	4.90 to 6.00
Cc1cc2c(N[C@H]3CC[C@H](N)CC3)c(C(=O)Nc3ccc(F)cc3)cnc2[nH]1	Receptor-type tyrosine-protein kinase FLT3 (Homo sapiens, UniProt P36888)	> 7.00
Fc1cccc(-c2cnoc2-c2c[nH]c3ncc(-c4cccnc4)cc23)c1F	Receptor-type tyrosine-protein kinase FLT3 (Homo sapiens, UniProt P36888)	> 6.70
CCC[C@@H](C)c1cc2c(N[C@H]3CC[C@H](N)CC3)c(C(=O)Nc3ccc(F)cc3)cnc2[nH]1	Receptor-type tyrosine-protein kinase FLT3 (Homo sapiens, UniProt P36888)	5.00 to 6.00
CCCc1cc2c(N[C@H]3CC[C@H](N)CC3)c(-c3ccc(C)nn3)cnc2[nH]1	Receptor-type tyrosine-protein kinase FLT3 (Homo sapiens, UniProt P36888)	> 7.00
Fc1cccc(-c2cnoc2-c2c[nH]c3ncc(-c4ccncc4)cc23)c1F	Receptor-type tyrosine-protein kinase FLT3 (Homo sapiens, UniProt P36888)	> 6.70
C=Cc1cnc2[nH]cc(-c3oncc3-c3cccc(F)c3F)c2c1	Receptor-type tyrosine-protein kinase FLT3 (Homo sapiens, UniProt P36888)	6.00 to 6.70
CCC(=O)Nc1ccc(Sc2nc(Nc3cc(C4CC4)[nH]n3)cc(N3CC(O)(C4CC4)C3)n2)cc1	Receptor-type tyrosine-protein kinase FLT3 (Homo sapiens, UniProt P36888)	7.64
Fc1cccc(-n2cnnc2-c2c[nH]c3ncc(-c4ccc(N5CCNCC5)nc4)cc23)c1F	Receptor-type tyrosine-protein kinase FLT3 (Homo sapiens, UniProt P36888)	4.90 to 6.00
CCC(C)c1cc2c(N[C@H]3CC[C@H](N)CC3)c(C(=O)Nc3ccc(F)cc3)cnc2[nH]1 (stereo partly shown)	Receptor-type tyrosine-protein kinase FLT3 (Homo sapiens, UniProt P36888)	6.00 to 7.00
CN1CCC(c2cnc3[nH]cc(-c4oncc4-c4cccc(F)c4F)c3c2)CC1	Receptor-type tyrosine-protein kinase FLT3 (Homo sapiens, UniProt P36888)	4.90 to 6.00
